- method: chemical genetic growth profiling, strain panel (AID 1159580);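 note: tested at 20 µM; growth read once vehicle control cultures reached saturation at 30 °C; 1 = growth at the plate median or of vehicle wells; lower values mean less growth of the strain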
- experimental-parameters: S. cerevisiae deletion strains, growth OD, locus YLR258W, strain gsy2
Screen size: about 5,500 compounds; about 2,000 (36%) were called active. About 18% were inconclusive and are not listed. Cut-off read from the data, not from the text of the source: active = normalized growth mostly below about 0.91 (no sharp cut-off); inconclusive = no clear call, values can overlap the other calls; inactive = mostly above about 0.92. Some of the results follow.
// allowed return values: 1 for active, -1 for inactive

Answered cases to consult:
COc1cc([C@@H]2c3cc4c(cc3[C@H](O)[C@H]3COC(=O)[C@H]23)OCO4)cc(OC)c1OC ... -1
O=c1c(O)c(-c2ccccc2)oc2cc(O)ccc12 ... 1
COc1ccc(CC(=O)c2ccc(O)cc2O)cc1 ... -1

input: Just curious, what result did "COc1ccc([C@@H](C)C(=O)c2ccc(O)cc2O)cc1" get here?
output: -1

input: And then "COc1cc(O)ccc1C(C)=O" , what is it?
output: -1

input: Follow-up item: "O=c1c(O)c(-c2ccc(O)cc2)oc2ccccc12"
output: 1

input: And for "CC1=C(C(=O)O)N2C(=O)[C@@H](NC(=O)[C@@H](N)c3ccc(O)cc3)[C@H]2SC1" ?
output: -1

input: Queued: "CC(=O)OCC1=C(C(=O)O)N2C(=O)[C@@H](NC(=O)CSc3ccncc3)[C@H]2SC1"
output: -1

input: What about CC(=O)NC1C(O)OC(COS(=O)(=O)O)C(OC2OC(C(=O)O)C(OC3OC(CO)C(OC4OC(C(=O)O)C(O)C(O)C4OS(=O)(=O)O)C(OS(=O)(=O)O)C3NS(=O)(=O)O)C(O)C2OS(=O)(=O)O)C1O (centres undefined) ?
output: -1

---

- method: chemical genetic growth profiling, strain panel (AID 1159580)
- experimental-parameters: S. cerevisiae deletion strains, growth OD, locus YHR030C, strain SLT2
Screen size: about 5,500 compounds; about 2,000 (36%) were called active. Inconclusive results (about 18%) are left out. Cut-off read from the data, not from the text of the source: active = normalized growth mostly below about 0.91 (no sharp cut-off); inconclusive = no clear call, values can overlap the other calls; inactive = mostly above about 0.92. Some of the results follow.
Respond using exactly one of the listed classes: label 1 for active, label 0 for inactive

Answered examples (3):
COC(=S)Nc1cc(Cl)cc(Cl)c1 ... label 1
COC(=O)CC1C(C)(C)C(=O)C2CC3(O)C4=CC(=O)OC(c5ccoc5)C4(C)CCC3C1(C)C2=O (configuration not stated) ... label 0
COC(=O)c1cccc(NS(=O)(=O)c2ccc(Cl)c(Cl)c2)c1 ... label 0

input: For "Nc1ccc(Sc2cc(Cl)ccc2Cl)nc1" , which call appears in the assay record?
output: label 1

input: Now the compound "O=[N+]([O-])c1cc(C(F)(F)F)ccc1Sc1ccc(Cl)cc1"
output: label 0

input: Likewise for "COC(=O)c1cc(OC)c(OC)cc1NC(=O)Nc1cc(Cl)cc(Cl)c1" ?
output: label 0

---

- method: chemical genetic growth profiling, strain panel (AID 1159580)
- experimental-parameters: S. cerevisiae deletion strains, growth OD, locus YBR279W, strain paf1, active compounds read low
Screen size: about 5,500 compounds; about 2,000 (36%) were called active. About 18% were inconclusive and are not listed. Some of the results follow.
Reported normalized growth is given for each of the following compounds.
Respond using a number only.

Cn1c(=O)[nH]c2nc[nH]c2c1=O ... 1
OC[C@H]1O[C@@H](Oc2ccc(O)cc2)[C@H](O)[C@@H](O)[C@@H]1O ... 1.01
O=C(/C=C/c1ccc(O)cc1)c1ccccc1O ... 0.423

input: I'd like to know its normalized growth. The compound in question is "O=C(/C=C/c1ccccc1)c1ccc(O)cc1O"
output: 0.0608

input: Here is the next compound: "O=C(/C=C/c1ccccc1)c1ccc(O[C@@H]2O[C@H](CO)[C@@H](O)[C@H](O)[C@H]2O)cc1O"
output: 0.96

input: Moving on to "CNC(=O)N(C)c1nnc(C(C)(C)C)s1"
output: 0.996

input: Repeat for the following compound: "COc1ccc([C@@H](C)C(=O)c2ccc(O)cc2O)cc1"
output: 0.978

input: Next compound: "CC(=O)CCCCn1c(=O)c2c(ncn2C)n(C)c1=O"
output: 1

input: Could you do the same for "O=C(CCc1ccc(O)cc1)c1c(O)cc(O)cc1O" , please?
output: 1.01

input: What do you have for "COc1ccc(CC(=O)c2ccc(O)cc2O)cc1" ?
output: 0.99

input: Follow-up entry: "Cn1cnc2c1c(=O)[nH]c(=O)n2C"
output: 0.997

input: Also, "Cn1c(=O)c2c(ncn2C)n(C)c1=O" please.
output: 0.982

---

- method: chemical genetic growth profiling, strain panel (AID 1159580)
- experimental-parameters: S. cerevisiae deletion strains, growth OD, locus YJR075W, strain HOC1
In all, about 5,500 compounds went through this assay and about 2,000 (36%) were called active. Another 18% or so got no clear call; they are omitted. Cut-off read from the data, not from the text of the source: active = normalized growth mostly below about 0.91 (no sharp cut-off); inconclusive = no clear call, values can overlap the other calls; inactive = mostly above about 0.92. This is one part of the list.
Could you please pick one outcome from this set? active, inactive

CC(C)NP(=O)(NC(C)C)OP(=O)(NC(C)C)NC(C)C ... inactive
Cn1cnc2c1c(=O)[nH]c(=O)n2C ... inactive
Cc1onc(-c2c(Cl)cccc2Cl)c1C(=O)N1CCN(c2ncnc3scc(-c4ccccc4)c23)CC1 ... inactive
CCOC(=O)c1c[nH]c2c(F)cccc2c1=O ... inactive
CC(C)N=C(N)N=C(N)Nc1ccc(Cl)cc1 ... inactive
Cc1ccc(O)c(C(CCN(C(C)C)C(C)C)c2ccccc2)c1 (centres undefined) ... inactive

input: // return assay outcome for "CCOC(=O)c1cnc(SCC(=O)c2ccc(Cl)cc2Cl)[nH]1"
output: inactive

---

- method: chemical genetic growth profiling, strain panel (AID 1159580);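 note: tested at 20 µM; growth read once vehicle control cultures reached saturation at 30 °C; 1 = growth at the plate median or of vehicle wells; lower values mean less growth of the strain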
- experimental-parameters: S. cerevisiae deletion strains, growth OD, locus YER167W, strain BCK2, active compounds read low
Among all 5,500 compounds or so, about 2,000 (36%) were called active. Inconclusive results (about 18%) are left out. Some of the results follow.
quantity-name: normalized growth

input: Recorded normalized growth for "CC1=C(C(=O)O)N2C(=O)[C@@H](NC(=O)[C@@H](N)c3ccc(O)cc3)[C@H]2SC1" , please?
output: 0.995 (inactive)

input: How about this compound: "O=C(O)CC[N+](=O)[O-]"
output: 0.988 (inactive)

---

- method: chemical genetic growth profiling, strain panel (AID 1159580);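 note: tested at 20 µM; growth read once vehicle control cultures reached saturation at 30 °C; 1 = growth at the plate median or of vehicle wells; lower values mean less growth of the strain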
- experimental-parameters: S. cerevisiae deletion strains, growth OD, locus YDR477W, strain SNF1, active compounds read low
Screen size: about 5,500 compounds; about 2,000 (36%) were called active. Inconclusive results (about 18%) are left out. Some of the results follow.
Listing: normalized growth of selected compounds
Reply with just the number.

Known results for compounds:
Cc1oc(C(C)(C)C)cc1-c1cc(NC(=O)c2ccccc2)n[nH]1 ... 0.924
Cc1cc(Sc2c([N+](=O)[O-])cc(C(F)(F)F)cc2[N+](=O)[O-])c(Cl)cc1Cl ... 0.959
O=C(NCc1ccc2c(c1)OCO2)c1cc2ccccc2s1 ... 0.422

input: What does the data say about its normalized growth? Entry: CC1SC(c2cccnc2)N(c2ccc(Cl)cc2)C1=O (stereo unspecified)
output: 0.411

input: Also, "CC(C)c1cccc(C(C)C)c1OC(=O)NC(=O)c1c(Cl)cccc1Cl" please.
output: 0.982

input: Another: "NNC(=O)c1oc2nc(-c3ccccc3)cc(-c3ccccc3)c2c1N"
output: 0.934

input: # repeat for "O=S(=O)(Nc1cc(C(F)(F)F)cc(C(F)(F)F)c1)c1ccc(Cl)s1"
output: 0.808

input: Likewise for "N/C(=N/OCc1c(F)cccc1Cl)c1ccc(Cl)cc1" ?
output: 0.92

input: Same for "O=[N+]([O-])c1ccc(NCc2ccc(Cl)c(Cl)c2)nc1"
output: 0.882

input: Now the same for CC1SC(c2cccnc2)N(c2ccc(F)cc2F)C1=O (stereo unspecified)
output: 0.981

input: "COc1ccc(Oc2ccc([N+](=O)[O-])cc2C(=O)O/N=C(/N)c2ccc(C(F)(F)F)cc2)cc1" , same question.
output: 0.999

---

The entries below come with measured normalized growth values attached.
- method: chemical genetic growth profiling, strain panel (AID 1159580);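 note: tested at 20 µM; growth read once vehicle control cultures reached saturation at 30 °C; 1 = growth at the plate median or of vehicle wells; lower values mean less growth of the strain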
- experimental-parameters: S. cerevisiae deletion strains, growth OD, locus YBR160W, strain CDC28, active compounds read low
Hit rate of the full screen: of about 5,500 compounds, about 2,000 (36%) were called active. Not shown: some 18% with an inconclusive outcome. This is one part of the list.
Format: numeric value only, no unit, no commentary.

The following compounds have reported results that may help.
COC(=O)c1sccc1S(=O)(=O)Nc1cc(C(F)(F)F)cc(C(F)(F)F)c1 ... 0.962
O=[N+]([O-])c1ccc(NCc2ccc(Cl)c(Cl)c2)nc1 ... 0.941
O=C(OCCNc1ccc([N+](=O)[O-])cn1)c1ccc([N+](=O)[O-])o1 ... 0.92
CC1SC(c2cccnc2)N(c2ccc(F)cc2F)C1=O (stereo not given) ... 0.983
FC(F)(F)c1c2c(nc3cc(-c4ccco4)nn13)CCC2 ... 0.975
O=C(Nc1ccc(F)cc1F)c1cc(Cl)ccc1O ... 0.945

input: Entry under review: "COc1ccc(OC)c2nc3c(nc12)C(=O)c1ccccc1-3" . Reported normalized growth?
output: 0.974

input: Okay, and "S=C(NCc1cccs1)Nc1cc(Cl)cc(Cl)c1" ?
output: 0.944

input: Moving on to "O=S(=O)(Nc1cc(C(F)(F)F)cc(C(F)(F)F)c1)c1ccc(Cl)s1"
output: 0.923

input: Try this compound next: "COC(=O)c1cc([N+](=O)[O-])ccc1S(=O)(=O)Cc1ccc(Cl)cc1"
output: 0.998

input: One more compound: "O=C(Nc1ccccc1Sc1ccc(C(F)(F)F)cc1[N+](=O)[O-])C(Cl)Cl"
output: 0.994

Data origin: PubChem BioAssay AID1159580
